Numbers sourced from a melting point compilation (Tetko et al.; mined from patent text by program, amines drawn as free bases though some values may be those of a salt).

reportedEndpoint: melting point

| compound | result |
| --- | --- |
| CCOC(=O)Cc1ccccc1Oc1ccc(COc2cc(CC)nc3c2CCCC3)cc1 | 89 to 90 °C |
| Cc1cn(C)c2cc(C(F)(F)F)c(O)cc12 | 256 °C |
| O=C1c2cccc(-c3ccccc3)c2C2NCCN12 (configuration not stated) | 155 to 157 °C |
| CCCCN(CCCCCN(CCCC)c1ccc(C=O)cc1)c1ccc(C=O)cc1 | 51 to 52 °C |
| CCn1c(OC(C)C)n[nH]c1=O | 69 to 70 °C |
| CCOC(=O)C1=C(C)NC(C)=C(C(=O)OC(C)C)C1c1cccc([N+](=O)[O-])c1 (configuration not stated) | 148 °C |
| Cc1oc(-c2ccccc2)nc1COc1ccc(COc2nn(-c3ccccc3)cc2CC(=O)O)cc1 | 151 to 152 °C |
| CCOC(=O)c1ncn2c1CN(Cc1ccc(OC)cc1OC)C(=O)c1ccccc1-2 | 136 to 138 °C |
| CC(C)(C)OC(=O)NCC(CC(=O)O)c1ccc(Cl)cc1 (configuration not stated) | 139 to 141 °C |
| O=C(O)Cc1ccc([N+](=O)[O-])c(C(=O)c2ccc(Cl)cc2)c1 | 182 to 183 °C |
| CCCCCCNCc1ccc(COc2cccc3c2CN(C2CCC(=O)NC2=O)C3=O)cc1 (configuration not stated) | 155 to 157 °C |
| CCCn1c(=O)n(-c2ccc3c(c2)OCO3)c2ncc(NC(=O)OCC)cc21 | 146 to 147 °C |
| COc1ccc(CN(C)CCCCc2ccc(NC(=O)c3cccc4c(=O)c5ccccc5sc34)cc2)cc1OC | 156 °C |
| COc1ccc2c(c1)C(NC(=O)OCc1ccccc1)C(=O)N2c1ccc(F)cc1 (configuration not stated) | 154 to 156 °C |
| CC(=O)Oc1cc(CNC=C2C(=O)NC(=O)c3ccc(Br)cc32)cc(OC(C)=O)c1 | 257 to 258 °C |
| O=C(Nc1ccccc1)Nc1cc(Cl)nc(Cl)c1 | 219 to 222 °C |
| Cc1nc(-c2ccc(O)c(C)c2O)no1 | 224 to 225 °C |
| O=C1Nc2cc(Cl)ccc2Nc2ccsc21 | 255 to 256 °C |
| CC(=O)NCCC1CCc2ccn3nc(-c4ccccc4)cc3c21 (configuration not stated) | 159 to 160 °C |
| O=C(O)Cc1cc(C(=O)c2ccccc2)cc(Cl)c1O | 131 °C |
| CCCCCCCNC(=O)c1ccccc1CN1C(=O)C2(COc3cc4c(cc32)CCO4)c2ccccc21 (configuration not stated) | 196 to 198 °C |
| CCOC(=O)CC(=O)c1cc(F)c(F)c(C)c1F | 38 to 39 °C |
| COC(=O)CSc1nc(SCc2c(Cl)cccc2Cl)ncc1[N+](=O)[O-] | 155 to 158 °C |
| CN(C)C=NC(=O)c1ccc(C(=O)N2Cc3cccn3Cc3ccccc32)cc1 | 232 to 234 °C |
| N#Cc1ccc(N2CCC(F)C2)c2ccsc12 (configuration not stated) | 151 to 152 °C |
| COC(=O)C(C#N)=CC(C)=CN(C)C | 163 to 164 °C |
| CC1C(=O)N(c2cccc(F)c2)C(=S)N1c1ccc(Oc2ccccc2)cc1 (configuration not stated) | 116 °C |
| O=C(O)c1cccc(C(=O)C=Cc2ccc(OCc3ccc4ccccc4n3)cc2)c1O | 233 to 235 °C |
| COc1cc(N=c2scc(-c3ccc(Cl)c(S(=O)(=O)N(C)C)c3)n2C)cc(OC)c1OC | 119 to 122 °C |
| CCOC1=CC=CC(C=O)C1(OCc1ccccc1)[N+](=O)[O-] (configuration not stated) | 110 to 111 °C |
| CCCc1ccc(-n2ncc(C#N)c2N(C(C)=O)C(C)=O)c(Cl)c1 | 110 to 112 °C |
| O=C(NCc1ccc2cc(O)ccc2c1)c1cc(-c2ccc(Cl)cc2)oc1C(F)(F)F | 189 to 191 °C |

====

| molecule | melting point |
| --- | --- |
| Cn1c(=O)cc(C(=O)O)c2cc(C(=O)c3ccc(Cl)cc3)ccc21 | > 260 °C |
| Cc1cc(NCCNC(=O)CCc2cc(C(C)(C)C)c(O)c(C(C)(C)C)c2)nc(Cl)c1C#N | 162 to 165 °C |
| CS(=O)(=O)C(C#N)=Cc1ccc2[nH]ccc2c1 | 184 to 185 °C |
| CCCc1nc(CO)c(C(=O)OCOC(=O)C(C)(C)C)n1Cc1ccc(-c2ccccc2-c2nnn[nH]2)cc1 | > 60 °C |

====

| molecule | melting point |
| --- | --- |
| Cc1ccc(CN2C(=NCCCn3ccnc3)c3cccc4cccc2c34)cc1 | 94 to 95 °C |
| O=Cc1ccccc1-c1nc2ccccc2o1 | 117 to 120 °C |
| O=C(Nc1nc(/C=C/c2ccc([N+](=O)[O-])cc2)cs1)c1ccccc1 | 224 to 225 °C |
| CCOC(=O)C(C)(NC(C)=O)C(=O)OCC | 89 to 90 °C |
| CCCCCCCNc1cccc(O)c1 | 27 to 30 °C |
| CC(=O)N1c2ccccc2Sc2cc(O)c3ccccc3c21 | 230 °C |

====

melting point: recorded values

| molecule | melting point |
| --- | --- |
| C=CCN1Cc2nc3c(cnn3CCCC#CC)c(N)c2C1=O | 138 to 140 °C |
| Cc1c(CC(=O)O)c2cc(OCc3ccccc3)ccc2n1Cc1ccc(Cl)cc1 | 140 to 142 °C |
| CC(C)C[C@H](NC(=O)[C@H](NC(=O)OCc1ccccc1)C(C)C)C(=O)O | 134 to 136 °C |

====

melting point: recorded values
reportedEndpoint: melting point

| molecule | result |
| --- | --- |
| Fc1ccc2c(CCCC3CNCc4c3[nH]c3cnc5cc(Cl)ccc5c43)noc2c1 (stereo not drawn) | 221 to 222 °C |
| Nc1cc(=O)n(Cc2ccc(OC(F)(F)F)cc2)[nH]1 | 99 °C |
| COC(=O)c1ccc(OCCNC(=O)C2Cc3ccccc3N2S(=O)(=O)c2ccc(-c3ccc(F)cc3)cc2)c(C)c1 (stereo not drawn) | 81 to 85 °C |
| O=c1nc2ccccc2c2cc(CO)[nH]n12 | 225 to 230 °C |
| Cc1cc(Nc2cccc(C(F)(F)F)c2)nc(-n2nc(C)cc2C)n1 | 130 to 134 °C |
| CC(C)COC(=O)Nc1cccc(Cn2ccc3cc(C(=O)O)ccc32)c1 | 173 to 176 °C |
| CCc1cc2cc([N+](=O)[O-])ccc2s1 | 55 °C |
| CC(C)C(=O)Nc1ccc2oc3c(c2c1)CCCC3 | 206 to 208 °C |

====

melting point: recorded values
reportedEndpoint: melting point

| molecule | result |
| --- | --- |
| CC(c1ccc(-c2ccccc2)c(F)c1)c1csc(NS(C)(=O)=O)n1 (stereo not drawn) | 128 to 129 °C |
| CC(C(=O)N(C)C)n1cc(Br)c(-c2ccccc2)n1 (stereo not drawn) | 90.5 to 91.5 °C |
| O=C1OC2(CCN(CCOC(c3ccccc3)c3ccccc3)CC2)c2ccccc21 | 99 to 100 °C |

====

melting point: recorded values

| compound | melting point |
| --- | --- |
| Cc1ccc(-c2ccccc2CC(N)=NO)cc1 | 127 to 128 °C |
| COC(=O)CCCc1cccc(NC(=O)[C@@H](CSC(C)=O)Cc2ccccc2)c1 | 87 to 88.5 °C |
| O=C(O)c1cc(Br)c(Cl)cc1O | 208 to 213 °C |
| Cc1csc(N2N=C(c3ccc([N+](=O)[O-])cc3)c3cc4c(cc3CC2C)OCO4)n1 (stereo unspecified) | 188 to 189 °C |
| CC1CC(Nc2nnc(-c3cccc(Oc4ccc(C(C)(C)C)cc4)c3)s2)CC(C)(C)C1 (stereo unspecified) | 166 to 167 °C |
| CCCCc1ccccc1C1C(C(=O)OCC)=C(CCC)Nc2[nH]ncc21 (stereo unspecified) | 175 °C |
| CCCCCCCCCCCCCC(=O)NN(C)C | 63.5 to 64.5 °C |
| COCCNC(=O)c1ccc(C(=O)N2CCN(c3ncccc3NC(C)C)CC2)nc1 | 122 to 124 °C |
| C=CCCn1cc([N+](=O)[O-])nc1Br | 28 to 30 °C |
| CC(C)OC(=O)C=Cc1cc(-n2c(=O)cc(C(F)(F)F)n(C)c2=O)c(F)cc1Cl | 137 to 139 °C |
| Cc1nc(N)nc(O)c1I | 212 °C |
| COP1(=O)C=Cc2ccccc21 (stereo unspecified) | 89 to 90 °C |
| OC1(Cn2cncn2)C(Cc2ccc(F)cc2)CCC12CC2 (stereo unspecified) | 89 to 90 °C |
| CC(=O)OCC1OC(n2cc(C)c(-n3cncn3)nc2=O)CC1N=[N+]=[N-] (stereo unspecified) | 143 to 145 °C |
| CC(C)c1cc(C(=O)Nc2ccc3[nH]c(C(=O)O)cc3c2)oc1C(C)C | 240 to 243 °C |
| CCCn1c(=O)[nH]c(=S)c2[nH]c(C=Cc3ccccc3)nc21 | > 290 °C |
| COc1ccc(CC(=O)NC(NC(Cc2cccnc2C)=NC#N)C(C)(C)C)cc1OC (stereo unspecified) | 164 to 165 °C |
| Fc1ccc(-c2ncn(C3CCNCC3)c2-c2ccnc(Oc3ccc4c(c3)OCO4)n2)cc1 | 131 to 132 °C |
| CCCCCCCCCCCCCCC(=O)C(=O)N[C@@H](CCCC)C(=O)NCC(=O)OC(C)(C)C | 38 to 39 °C |
| CS(=O)(=O)c1ccc(-c2cnn(-c3ccc(Cl)s3)c(=O)c2-c2ccc(F)cc2)cc1 | 190 to 192 °C |
| Cc1nc(-c2ccccc2)n(-c2ccc(S(N)(=O)=O)cn2)n1 | 203 to 204 °C |
| COC(=O)c1cc2c3ccccc3n(CC3CC3)c2s1 | 110 to 111 °C |
| CCn1nccc1NC(=O)c1cc(C(=O)OC)c(O)c2ncc(Cc3ccc(F)cc3)cc12 | 219 to 220 °C |
| C1=C(c2c[nH]c3ccccc23)CCN(CC2CCc3ccccc32)C1 (stereo unspecified) | 168 to 170 °C |
| CNC(=O)N1CC(Oc2ccc(C(N)=O)cc2)C1 | 208 to 210 °C |
| CCCc1nc2cccc(C(=S)OC)c2n1Cc1ccc(-c2ccccc2C#N)cc1 | 107 to 108 °C |
| CCOC(=O)c1ccc(-c2cccc(-c3ccc4c(c3)C(C)(C)CCC4(C)C)c2OCOC)cc1 | 75 °C |
| COC(=O)CCNc1ccccc1CNC(=O)C1Cc2ccccc2N1S(=O)(=O)c1ccc(-c2ccc(F)cc2OC)cc1 (stereo unspecified) | 78 to 80 °C |
| CCOC(=O)c1cc(C(=O)OCC)c(=O)[nH]c1C | 195 to 197 °C |
| CN(C)S(=O)(=O)c1cc2c(c(Cl)c1Cl)OC(C(=O)OCOC(=O)C(C)(C)C)C2 (stereo unspecified) | 113 to 114 °C |
| Cc1ccc(C(=O)NCN2CCN(c3ncccc3C#N)CC2)cc1 | 134 to 136 °C |
| Cc1cccc(Cl)c1NS(=O)(=O)c1n[nH]c(N)n1 | 217 °C |
| CN(c1ccc(Br)cc1)c1nc(=O)c2cccnc2s1 | 221 to 222 °C |
| Cc1ccc(-c2cc(N3CCCCC3)c(C#N)c3c2-c2ccccc2C3)cc1 | 162 to 164 °C |
| CNC(=Nc1cc(Cl)ccc1N1CCOCC1)NC | 145 to 146 °C |
| Cc1oc(-c2ccccc2)nc1COc1cc(COc2ncccc2CC(=O)O)on1 | 129 to 130 °C |
